# method notes: logP determination by HPLC on reverse-phase column (C 18), EEC Directive 79/831 Annex V.A8
# Assay type: physicochemical
# details: reverse-phase HPLC column (C 18); compounds of formula (I); pH 2.3, HPLC, 0.1% aqueous phosphoric acid/acetonitrile, 43° C.
result type: chromatographic logP

{"columns": ["compound smiles", "result type", "val"],
 "data": [
  ["COC(=O)c1ccc(-c2cc(F)ccc2NC(=O)c2cn(C)nc2C(F)(F)F)cc1F", "chromatographic logP", 2.64]
]}

----------
# method notes: logP determination by HPLC on reverse-phase column (C 18), EEC Directive 79/831 Annex V.A8
# Format: physicochemical
# details: reverse-phase HPLC column (C 18); starting materials of formula (III); pH 2.3, HPLC, 0.1% aqueous phosphoric acid/acetonitrile, 43° C.

{"columns": ["compound smiles", "chromatographic logP"],
 "data": [
  ["COC(=O)c1ccc(-c2cc(F)ccc2N)cc1F", 2.73]
]}
